I'd appreciate it if you could supply IC50 values for the items below.
- Target: pSTAT3 (pY705-STAT3) (Homo sapiens)
- Construct: host or cells: cryopreserved PBMC
- Sequence (P40763 whole entry): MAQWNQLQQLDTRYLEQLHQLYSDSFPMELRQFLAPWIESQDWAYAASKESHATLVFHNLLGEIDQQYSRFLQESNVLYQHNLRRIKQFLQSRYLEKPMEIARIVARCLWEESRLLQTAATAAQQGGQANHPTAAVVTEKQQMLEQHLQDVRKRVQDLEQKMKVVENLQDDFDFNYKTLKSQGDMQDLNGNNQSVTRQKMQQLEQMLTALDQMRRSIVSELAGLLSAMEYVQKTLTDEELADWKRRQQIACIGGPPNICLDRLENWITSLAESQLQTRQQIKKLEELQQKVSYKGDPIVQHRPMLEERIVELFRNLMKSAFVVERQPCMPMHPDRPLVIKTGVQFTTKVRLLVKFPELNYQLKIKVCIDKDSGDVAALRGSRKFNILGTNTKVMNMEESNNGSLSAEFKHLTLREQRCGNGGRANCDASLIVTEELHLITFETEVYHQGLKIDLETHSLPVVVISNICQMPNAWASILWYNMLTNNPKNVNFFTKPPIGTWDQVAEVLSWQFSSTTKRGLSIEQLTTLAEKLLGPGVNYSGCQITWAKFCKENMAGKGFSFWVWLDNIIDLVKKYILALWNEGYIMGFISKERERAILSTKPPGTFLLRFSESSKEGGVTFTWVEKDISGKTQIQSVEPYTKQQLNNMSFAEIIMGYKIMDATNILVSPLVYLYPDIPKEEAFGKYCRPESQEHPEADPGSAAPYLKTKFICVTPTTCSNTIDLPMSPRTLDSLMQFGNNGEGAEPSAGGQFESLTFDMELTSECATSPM
- Protocol Notes: MSD-pSTAT-PBMC Assay (pSTAT3, IL-6 stimulated)
- Assay type: cell-based

Identify the measured IC50 of CCCOC(=O)[C@H](C)NP(=O)(Oc1ccccc1)C(F)c1ccc2sc(C(=O)N[C@H]3C[C@@H]4C[C@@H]4C[C@H]4CC[C@@H](C(=O)N5CC(c6cnccc6N6CCC6)C5)N4C3=O)cc2c1 (single isomer, unassigned) for pSTAT3 (pY705-STAT3) (Homo sapiens). < 100 nM

Requested read-out IC50, target or system pSTAT3 (pY705-STAT3) (Homo sapiens), entry CCCOC(=O)[C@H](C)NP(=O)(Oc1ccccc1)C(F)c1ccc2sc(C(=O)N[C@H]3C[C@@H]4C[C@@H]4C[C@H]4CC[C@@H](C(=O)N5CC(c6cnccc6N6CCN(C)CC6)C5)N4C3=O)cc2c1 (stereo partly shown) 100 to 1000 nM

// map CCCOC(=O)[C@H](C)NP(=O)(Oc1ccccc1)C(F)c1ccc2sc(C(=O)N[C@H]3C[C@@H]4C[C@@H]4C[C@H]4CC[C@@H](C(=O)N5CC(c6cc(C(F)F)on6)C5)N4C3=O)cc2c1 (stereo partly shown) to recorded IC50 (system: pSTAT3 (pY705-STAT3) (Homo sapiens)) < 100 nM

Under pSTAT3 (pY705-STAT3) (Homo sapiens): IC50 value of CCCOC(=O)[C@H](C)N[P@@](=O)(Oc1ccccc1)[C@@H](F)c1ccc2sc(C(=O)N[C@H]3C[C@@H]4C[C@@H]4C[C@H]4CC[C@@H](C(=O)N5C[C@H](c6cccnc6)[C@@H](C#N)C56CC6)N4C3=O)cc2c1 (single isomer, unassigned) ? > 3000 nM
